assay overview: Half life in Sprague-Dawley rat at 50 mg/kg, po measured for 24 hrs by LC-MS/MS analysis
Assay type: ADME, organism-based
condition summary: in vivo
result type: half-life (h)
Give a bare numeral; the unit h is implied.

# query: half-life of entry C=CC(=O)N1CCc2c(ncnc2N2CC[C@@H](Nc3ncc(Cl)c(OC)n3)C2)C1
6.79

###

assay overview: Half life in Sprague-Dawley rat at 150 mg/kg, po measured for 24 hrs by LC-MS/MS analysis
Format: ADME, organism-based
condition summary: in vivo
result type: half-life (h)
Give a bare numeral; the unit h is implied.

# query: half-life of entry C=CC(=O)N1CCc2c(ncnc2N2CC[C@@H](Nc3ncc(Cl)c(OC)n3)C2)C1
21.2

###

assay overview: Cmax in male Sprague-Dawley rat at 20 mg/kg, po administered once daily via gavage for 28 days
Assay type: ADME, organism-based
condition summary: in vivo, time 28 day
result type: Cmax (µg/mL)
Give a bare numeral; the unit µg/mL is implied.

# query: Cmax of entry C=CC(=O)N1CCc2c(ncnc2N2CC[C@@H](Nc3ncc(Cl)c(OC)n3)C2)C1
0.793

###

assay overview: Half life in female Sprague-Dawley rat at 30 mg/kg, po administered via gavage and measured on day 1
Assay type: ADME, organism-based
condition summary: in vivo, time 1 day
result type: half-life
Give me the value, and tack the unit on after it.

# query: half-life of entry C=CC(=O)N1CCc2c(ncnc2N2CC[C@@H](Nc3ncc(Cl)c(OC)n3)C2)C1
4 h

This collection of values is drawn from ChEMBL document CHEMBL6153137.
